Target: TEC (Homo sapiens)
Sequence (P42680 1-631): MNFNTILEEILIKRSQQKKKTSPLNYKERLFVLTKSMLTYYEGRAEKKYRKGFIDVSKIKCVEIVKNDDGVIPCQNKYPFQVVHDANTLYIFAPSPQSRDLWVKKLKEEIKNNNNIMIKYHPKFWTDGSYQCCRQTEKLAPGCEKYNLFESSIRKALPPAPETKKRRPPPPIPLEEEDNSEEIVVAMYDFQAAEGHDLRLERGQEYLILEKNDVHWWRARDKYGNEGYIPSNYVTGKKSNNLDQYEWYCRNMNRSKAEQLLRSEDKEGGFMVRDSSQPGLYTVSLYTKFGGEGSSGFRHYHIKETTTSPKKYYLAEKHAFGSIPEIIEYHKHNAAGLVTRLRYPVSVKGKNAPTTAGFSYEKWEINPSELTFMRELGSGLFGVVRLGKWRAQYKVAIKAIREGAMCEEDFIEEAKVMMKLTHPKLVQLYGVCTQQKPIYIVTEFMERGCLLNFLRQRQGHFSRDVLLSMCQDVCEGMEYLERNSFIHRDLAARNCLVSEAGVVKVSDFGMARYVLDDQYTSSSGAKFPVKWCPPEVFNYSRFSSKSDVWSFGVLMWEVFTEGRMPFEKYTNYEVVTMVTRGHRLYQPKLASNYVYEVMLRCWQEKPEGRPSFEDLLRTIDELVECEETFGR
Assay: Inhibition of a panel of kinases, in vitro HotSpot kinase assay: TEC
Type: biochemical
Settings: D-compounds panel data; 1 μM ATP
pIC50: −log10 of the molar value.
assay metric: pIC50

1) C[C@@H]1[C@H](NC(=O)N(C)C)CCCN1c1cnc(C(N)=O)c(Nc2cc(CN3CCOCC3)ns2)n1 ... 6.00 to 7.00
2) C[C@@H]1[C@H](NC(=O)c2cc3c(n2C)CC(C)(C)C3)CCCN1c1cnc(C(N)=O)c(Nc2cnn(C)c2)n1 ... 7.00 to 8.00
3) C[C@@H]1[C@H](NC(=O)c2ccc(C3CC3)cc2F)CCCN1c1cnc(C(N)=O)c(Nc2ccc(S(=O)(=O)N3CCCC3)cc2)n1 ... 6.00 to 7.00
4) Cc1ccc(-c2cnc([C@@H]3CCCN(c4cnc(C(N)=O)c(Nc5cc(C)ns5)n4)C3)[nH]2)cc1 ... 5.00 to 6.00
5) Cn1cc(Nc2nc(N3CCC[C@@H]4[C@H]3CCN4C(=O)c3ccc(C4CC4)cc3)cnc2C(N)=O)cn1 ... 6.00 to 7.00
6) C[C@@H]1[C@H](NC(=O)c2ccc(C(C)(C)C)cc2F)CCCN1c1cnc(C(N)=O)c(Nc2cnn(C)c2)n1 ... 7.00 to 8.00
7) C[C@@H]1[C@H](NC(=O)c2ccc(C(F)(F)F)nc2)CCCN1c1cnc(C(N)=O)c(Nc2cnn(C)c2)n1 ... 7.00 to 8.00
8) C[C@@H]1[C@H](NC(=O)N(C)C)CCCN1c1cnc(C(N)=O)c(Nc2ccc3cccnc3c2)n1 ... 5.00 to 6.00
9) C[C@@H]1[C@H](NC(=O)c2ccc3nn(C)cc3c2)CCCN1c1cnc(C(N)=O)c(Nc2cnn(C)c2)n1 ... ≥ 8.00
10) C[C@@H]1[C@H](NC(=O)c2ccc(N(C)C)cc2)CCCN1c1cnc(C(N)=O)c(Nc2cnn(C)c2)n1 ... ≥ 8.00
11) C[C@@H]1[C@H](NC(=O)c2ccc(SC(F)(F)F)cc2)CCCN1c1cnc(C(N)=O)c(Nc2ccc(N3CCN(C)CC3)cc2)n1 ... 7.00 to 8.00
12) C[C@@H]1[C@H](NC(=O)c2ccc(C3CC3)cc2Cl)CCCN1c1cnc(C(N)=O)c(Nc2ccc(N3CCN(C)CC3)cc2)n1 ... 7.00 to 8.00
13) C[C@@H]1[C@H](NC(=O)c2ccc(N(C)C)cc2)CCCN1c1cnc(C(N)=O)c(Nc2ccc(C3(C)CCN(C4CCCC4)CC3)cc2)n1 ... 7.00 to 8.00
14) CC(C)c1ccc(C(=O)N[C@@H]2CCCN(c3cnc(C(N)=O)c(Nc4cnn(C)c4)n3)C2)cc1 ... 7.00 to 8.00
